tested on: MDA-N; assay: NCI tumour cell line growth inhibition, 48 h
Give measured TGI for each item. Keep answers brief.

Enquiry: If you can, please state the reported TGI value of `CC(=O)c1ccc(N=NN2CCCC2)cc1` .
Return: > 100 µM

Enquiry: Subsequent entry: c1ccc(COC[C@H]2O[C@@H](c3ccccc3)C[C@@H](OCc3ccccc3)C2OCc2ccccc2)cc1 (stereo partly drawn)
Return: > 10 µM

Enquiry: Subsequent entry: O=C(NCCC1CNc2ccccc21)OCc1ccccc1 (stereo not drawn)
Return: > 100 µM

###

system: OVCAR-3 ovarian; assay: NCI tumour cell line growth inhibition, 48 h
Give measured TGI for each item. Keep answers brief.

Enquiry: Param readout= TGI; system= OVCAR-3 ovarian; entry= COC(=O)C1CCC(=O)N1CN(C(C)=O)c1cccc(O)c1 (stereo not given) ; returns value.
Return: > 100 µM

Enquiry: Subsequent entry: Cc1ccc(OCC2OC(n3cnc4c(Cl)nc(Nc5cc(Cl)cc(Cl)c5)nc43)CC2Oc2ccc(C)cc2)cc1 (stereo not given)
Return: > 100 µM

Enquiry: Subsequent entry: CCC(c1ccccc1)c1noc(CCN(CC)CC)n1 (stereo not given)
Return: > 56.2 µM

Enquiry: Subsequent entry: `COC(=O)[C@@H]1[C@@H]2NC(=S)N[C@@]1(C)Oc1ccccc12`
Return: > 100 µM

Enquiry: Subsequent entry: `COc1cc(/C=C/c2csnn2)cc(OC)c1OC`
Return: > 100 µM

###

Give measured TGI for each item. Keep answers brief.
tested on: MALME-3M melanoma; experiment: NCI tumour cell line growth inhibition, 48 h

Enquiry: If you can, please state the reported TGI value of `C#Cc1ccc(-n2c(/C=C/c3ccc(O)cc3)nc3ncccc3c2=O)cc1` .
Return: > 100 µM

Enquiry: Subsequent entry: `CCOC(=O)C1=C(NC)OCC1=O`
Return: > 100 µM

Enquiry: Subsequent entry: O=C(NCCc1ccccc1)C1C(=O)C(=O)N(CCc2ccccc2)C1=O (stereo not drawn)
Return: > 100 µM

###

test system: COLO 205 colon; test: NCI tumour cell line growth inhibition, 48 h; in the data active = GI50 below about 0.43 µM; inactive = the rest
Respond only with the outcome that fits, drawn from active, inactive

Enquiry: Identify the outcome logged in this assay for the compound shown: CSc1nc2nc(-c3ccccc3)c(C)c-2c2n1C(C)C(=O)N2 (stereo unspecified)
Return: inactive

Enquiry: Subsequent entry: `CNCc1ccc(-c2cc(-c3nc(-c4ccc(S(=O)(=O)C(C)C)cc4)cnc3N)on2)cc1`
Return: inactive

Enquiry: Subsequent entry: `COc1cc(C(=O)/C=C/c2cccc(Nc3ccnc4cc(Cl)ccc34)c2)cc(OC)c1OC`
Return: inactive

Enquiry: Subsequent entry: Fc1ccc(NC(c2ccc(F)cc2)C2CCN(CCCCc3ccccc3)CC2)cc1 (stereo unspecified)
Return: inactive

Enquiry: Subsequent entry: `O=C(O)CN(CCN(CC(=O)O)CC(=O)O)CC(=O)O.[Mn+2]`
Return: inactive

Enquiry: Subsequent entry: `COCCN(CCOC)c1nc(-c2ccccc2)nc2ccccc12`
Return: inactive

Enquiry: Subsequent entry: `Cc1cc(Cl)nc(N(CCNc2ccnc3cc(Cl)ccc23)Cc2ccco2)n1`
Return: inactive

Enquiry: Subsequent entry: `O=C(Nc1ccc(OC(F)(F)Cl)cc1)c1cnc(N2CC[C@@H](O)C2)c(-c2ccn[nH]2)c1`
Return: inactive

Enquiry: Subsequent entry: `COCCN(Cc1ccc(F)cc1)c1ccc(CO)c(Cl)c1`
Return: inactive

Enquiry: Subsequent entry: `CCN(CC)c1ccc2nc3ccc(=[N+](CC)CC)cc-3oc2c1`
Return: active

Enquiry: Subsequent entry: COc1ccc(C(O)c2cc3c(N)c(C(=O)Nc4cccc5ccccc45)sc3nc2C)cc1 (stereo unspecified)
Return: inactive
